Experiment Summary: Log P by HPLC on reversed phase columns (EEC directive 79/831 Annex V.A8)
Format: physicochemical
Test Context: method [a]: LC-UV, acidic range, 0.1% formic acid in water and acetonitrile as eluent
Measurement Kind: LogP

Worked examples, 3 compounds total:
Compound: Cc1c(C(=O)NC(Cc2ccccc2)C(=O)O)sc(Cl)c1Cl (stereo not drawn)
LogP: 3.31^[a]
//
Compound: CCOC(=O)C(CCSC)NC(=O)c1sc(Br)c(Br)c1I (stereo not drawn)
LogP: 4.37^[a]
//
Compound: Cc1c(C(=O)NC(C)C(=O)O)sc(Cl)c1Cl (stereo not drawn)
LogP: 2.28^[a]

Q: Look up LogP: Cc1c(C(=O)NC(C(=O)OCC(C)C)C(C)C)sc(Br)c1Br (stereo not drawn)
A: 5.22^[a]

Q: Would you mind doing Cc1c(C(=O)NCC(=O)OC(C)(C)C)sc(Cl)c1Cl as well?
A: 3.77^[a]

Q: Cool, now COC(=O)[C@@H](NC(=O)c1sc(Br)c(Br)c1C)C(C)C
A: 3.87^[a]

Q: Another: CCOC(=O)C1(NC(=O)c2sc(Cl)c(Cl)c2C)CC1
A: 3.08^[a]

Q: Continue with CCOC(=O)C(CC(C)C)NC(=O)c1sc(Br)c(Br)c1C (stereo not drawn) [I.05]
A: 4.56^[a]

Q: Would you kindly repeat that for CCOC(=O)C(NC(=O)c1sc(Cl)c(Cl)c1C)c1ccccc1 (stereo not drawn) ?
A: 4.37^[a]

Q: Request: Cc1c(C(=O)NC(Cc2ccccc2)C(=O)O)sc(Br)c1Br (stereo not drawn)
A: 3.30^[a]

Q: And CCOC(=O)C(Cc1ccc(O)cc1)NC(=O)c1sc(Cl)c(Cl)c1C (stereo not drawn) ?
A: 3.29^[a]

Q: // same read-out, input: CCCOC(=O)CNC(=O)c1sc(Cl)c(Cl)c1C
A: 3.35^[a]

Q: Please do the same for Cc1c(C(=O)NC(C(=O)OC2CC2)C(C)C)sc(Br)c1Br (stereo not drawn) as well.
A: 4.37^[a]

Q: Input CCOC(=O)C(NC(=O)c1sc(Cl)c(Cl)c1I)C(C)C (stereo not drawn)
A: 4.85^[a]

Q: Next compound: COC(=O)C(NC(=O)c1sc(Br)c(Br)c1C)C(C)C (stereo not drawn)
A: 3.91^[a]

Q: Please give the result for CSCCC(NC(=O)c1sc(Cl)c(Cl)c1C)C(=O)O (stereo not drawn) too.
A: 2.80^[a]

Q: Here is the next compound: Cc1c(C(=O)NCC(=O)O)sc(Br)c1Br
A: 2.05^[a]

Q: Quick one: Cc1c(C(=O)NCC(=O)O)sc(Cl)c1Cl
A: 2.05^[a]

Q: Query CCOC(=O)c1sc(NC(=O)OC(C)(C)C)c(Br)c1C next
A: 4.62^[a]

Q: COC(=O)[C@@H](NC(=O)c1sc(Cl)c(Cl)c1C)C(C)C ?
A: 3.79^[a]

Q: Cool, now COC(=O)C(NC(=O)c1sc(Cl)c(Cl)c1C)C(C)C (stereo not drawn) [I.46]
A: 3.79^[a]

Q: Now consider C#CCOC(=O)C(NC(=O)c1sc(Br)c(Br)c1C)C(C)C (stereo not drawn) .
A: 4.06^[a]

Q: Now give it for CC[C@H](C)[C@H](NC(=O)c1sc(Cl)c(Cl)c1C)C(=O)O too.
A: 3.31^[a]

Q: Same thing, different compound: COC(=O)C(NC(=O)c1sc(Cl)c(Cl)c1C)C(C)C (stereo not drawn) [I.91]
A: 4.34^[a]
